Each record here notes measured pKd.
Target: T1, human IL-33 (R&D Systems, #3625-IL-010/CF) (human, UniProt O95760 112-270)
T1 construct: Commercial recombinant protein; also called hIL-33; interleukin-33
T1 sequence (looked up): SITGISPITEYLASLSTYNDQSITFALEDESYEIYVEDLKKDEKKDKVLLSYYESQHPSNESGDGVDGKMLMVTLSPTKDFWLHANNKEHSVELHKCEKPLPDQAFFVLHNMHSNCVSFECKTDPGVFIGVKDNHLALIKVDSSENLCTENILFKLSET
Assay: SPR 25C pH7.4, mAb captured
Formally, pKd is defined as -log10 of the concentration c, with c in mol/L.

binder="H1M9568N (antibody, mouse IgG1, V domains shown, Human variable domains, mouse IgG1 Fc (H1M)) VH: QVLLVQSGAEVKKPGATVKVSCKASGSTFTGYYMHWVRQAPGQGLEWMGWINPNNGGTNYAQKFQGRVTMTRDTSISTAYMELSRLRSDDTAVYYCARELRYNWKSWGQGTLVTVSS VL: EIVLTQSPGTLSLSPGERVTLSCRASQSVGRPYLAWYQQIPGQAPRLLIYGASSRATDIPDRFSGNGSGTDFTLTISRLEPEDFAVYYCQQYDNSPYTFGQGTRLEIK" endpoint_result=9.74
binder="H4H9629P (antibody, human IgG4, V domains shown, Human IgG4 Fc (H4H)) VH: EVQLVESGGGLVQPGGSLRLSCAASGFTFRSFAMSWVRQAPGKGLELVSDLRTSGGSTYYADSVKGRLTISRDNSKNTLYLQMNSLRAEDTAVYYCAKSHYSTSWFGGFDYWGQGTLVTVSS VL: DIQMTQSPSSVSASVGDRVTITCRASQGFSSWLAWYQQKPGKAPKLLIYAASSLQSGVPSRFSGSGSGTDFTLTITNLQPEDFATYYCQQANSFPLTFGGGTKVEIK" endpoint_result=9.54
binder="H4H9664P (antibody, human IgG4, V domains shown, Human IgG4 Fc (H4H)) VH: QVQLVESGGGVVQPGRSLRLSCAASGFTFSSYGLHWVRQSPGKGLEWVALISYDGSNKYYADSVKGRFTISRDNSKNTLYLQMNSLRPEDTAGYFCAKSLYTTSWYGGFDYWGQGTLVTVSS VL: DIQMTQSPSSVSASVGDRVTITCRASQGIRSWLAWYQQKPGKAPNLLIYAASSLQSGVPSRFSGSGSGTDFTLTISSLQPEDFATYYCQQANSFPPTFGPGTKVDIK" endpoint_result=9.12

Measured pKd, H4H9665P (antibody, human IgG4, V domains shown, Human IgG4 Fc (H4H)) VH: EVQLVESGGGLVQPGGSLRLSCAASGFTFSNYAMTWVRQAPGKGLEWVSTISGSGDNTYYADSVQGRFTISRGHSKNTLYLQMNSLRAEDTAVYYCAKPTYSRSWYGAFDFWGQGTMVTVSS VL: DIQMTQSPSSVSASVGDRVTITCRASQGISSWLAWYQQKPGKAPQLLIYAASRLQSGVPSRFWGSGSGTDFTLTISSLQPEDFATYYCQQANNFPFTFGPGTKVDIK : 9.27

So, H4H9676P (antibody, human IgG4, V domains shown, Human IgG4 Fc (H4H)) VH: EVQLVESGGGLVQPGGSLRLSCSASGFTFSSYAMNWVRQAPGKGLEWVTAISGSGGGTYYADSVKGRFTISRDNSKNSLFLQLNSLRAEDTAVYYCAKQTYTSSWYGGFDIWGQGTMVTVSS VL: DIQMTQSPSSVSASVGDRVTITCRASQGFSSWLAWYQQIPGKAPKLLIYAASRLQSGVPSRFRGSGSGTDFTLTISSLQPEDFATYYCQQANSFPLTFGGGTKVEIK ? Its pKd was 9.48

Notebook: H4H9633P (antibody, human IgG4, V domains shown, Human IgG4 Fc (H4H)) VH: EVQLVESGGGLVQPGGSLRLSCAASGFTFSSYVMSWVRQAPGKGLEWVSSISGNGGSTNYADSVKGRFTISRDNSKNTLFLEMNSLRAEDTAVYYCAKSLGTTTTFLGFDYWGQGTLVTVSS VL: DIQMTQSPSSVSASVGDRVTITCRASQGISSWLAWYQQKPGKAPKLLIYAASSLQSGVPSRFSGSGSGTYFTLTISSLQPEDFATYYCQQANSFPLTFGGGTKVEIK , pKd read as 9.36

The recorded pKd for H4H9670P (antibody, V domains shown, Human IgG4 Fc (H4H)) VH: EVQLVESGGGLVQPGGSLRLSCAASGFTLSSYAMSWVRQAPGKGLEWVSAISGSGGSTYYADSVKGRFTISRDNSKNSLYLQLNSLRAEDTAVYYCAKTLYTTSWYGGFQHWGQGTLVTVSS VL: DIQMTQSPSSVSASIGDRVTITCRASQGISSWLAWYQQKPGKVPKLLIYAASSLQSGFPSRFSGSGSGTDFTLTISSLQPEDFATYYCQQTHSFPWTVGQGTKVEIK is 9.43

The reported value for H4H9666P (antibody, human IgG4, V domains shown, Human IgG4 Fc (H4H)) VH: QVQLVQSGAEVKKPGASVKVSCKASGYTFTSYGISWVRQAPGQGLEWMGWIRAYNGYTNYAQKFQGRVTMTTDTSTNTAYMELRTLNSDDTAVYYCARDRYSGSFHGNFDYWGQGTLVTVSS VL: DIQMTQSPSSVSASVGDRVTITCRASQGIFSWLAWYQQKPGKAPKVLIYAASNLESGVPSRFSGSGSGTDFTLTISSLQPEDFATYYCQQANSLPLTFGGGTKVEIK in terms of pKd is 9.26

Lab note: H4H9662P (antibody, V domains shown, Human IgG4 Fc (H4H)) VH: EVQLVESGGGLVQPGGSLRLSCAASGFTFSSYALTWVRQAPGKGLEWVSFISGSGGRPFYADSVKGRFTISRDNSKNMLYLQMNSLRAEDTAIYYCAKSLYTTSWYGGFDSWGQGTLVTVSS VL: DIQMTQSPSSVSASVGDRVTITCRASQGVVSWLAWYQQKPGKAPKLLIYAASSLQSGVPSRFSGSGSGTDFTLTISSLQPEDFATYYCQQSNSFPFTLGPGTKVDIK gave pKd of 9.51

Noted for H4H9640P (antibody, human IgG4, V domains shown, Human IgG4 Fc (H4H)) VH: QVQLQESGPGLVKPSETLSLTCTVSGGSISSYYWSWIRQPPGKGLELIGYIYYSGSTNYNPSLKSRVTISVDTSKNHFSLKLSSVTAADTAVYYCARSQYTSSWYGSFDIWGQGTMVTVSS VL: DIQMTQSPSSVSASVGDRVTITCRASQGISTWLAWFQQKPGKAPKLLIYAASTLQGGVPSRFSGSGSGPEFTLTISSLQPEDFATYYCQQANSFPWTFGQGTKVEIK : its pKd reads 9.59
